molecular target: CDK7/CycH/MAT1 (Homo sapiens (Human), UniProt P50613); experiment: Radiometric protein kinase assay (33PanQinase), Assay Condition A (thiol containing); conditions: thiol containing (1.2 mM DTT), ATP 3.0 μM
Sequence (P50613 whole entry): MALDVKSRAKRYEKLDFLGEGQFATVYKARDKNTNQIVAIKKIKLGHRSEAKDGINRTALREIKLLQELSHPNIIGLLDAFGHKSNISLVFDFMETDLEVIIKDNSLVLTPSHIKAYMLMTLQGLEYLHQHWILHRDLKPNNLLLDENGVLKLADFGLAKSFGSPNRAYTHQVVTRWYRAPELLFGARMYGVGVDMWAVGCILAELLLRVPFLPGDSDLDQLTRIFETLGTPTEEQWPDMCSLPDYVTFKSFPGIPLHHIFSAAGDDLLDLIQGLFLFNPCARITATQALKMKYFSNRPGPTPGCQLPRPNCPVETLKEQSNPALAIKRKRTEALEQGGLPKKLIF
Sequence (P51946 whole entry partner): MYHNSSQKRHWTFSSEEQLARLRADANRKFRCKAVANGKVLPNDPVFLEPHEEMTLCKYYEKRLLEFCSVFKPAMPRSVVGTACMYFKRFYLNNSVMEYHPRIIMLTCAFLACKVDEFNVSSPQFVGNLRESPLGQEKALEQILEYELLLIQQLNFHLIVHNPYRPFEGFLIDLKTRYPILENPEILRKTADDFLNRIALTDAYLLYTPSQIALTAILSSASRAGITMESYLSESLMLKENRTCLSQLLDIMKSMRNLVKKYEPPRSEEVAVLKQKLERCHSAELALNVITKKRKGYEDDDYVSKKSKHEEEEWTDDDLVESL
Sequence (P51948 whole entry partner): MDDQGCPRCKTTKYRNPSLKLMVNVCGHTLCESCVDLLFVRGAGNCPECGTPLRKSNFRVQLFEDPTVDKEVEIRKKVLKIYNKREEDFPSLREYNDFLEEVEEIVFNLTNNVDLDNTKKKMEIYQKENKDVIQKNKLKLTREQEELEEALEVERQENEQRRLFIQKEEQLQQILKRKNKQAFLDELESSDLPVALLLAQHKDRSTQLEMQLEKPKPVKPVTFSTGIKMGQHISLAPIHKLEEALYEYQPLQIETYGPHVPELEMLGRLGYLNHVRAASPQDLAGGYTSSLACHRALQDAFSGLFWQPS
pIC50: −log10 of the molar value.
Here, each record is paired with measured pIC50 data.

The examples below pair each entry with its known result.
* C=CC(=O)Nc1ccc(C(=O)N2CCC[C@@H](Nc3ncc4ccc(Cl)cc4n3)C2)cc1 | 4.00 to 4.52
* C=CC(=O)Nc1ccc(C(=O)N2CCC[C@@H](Nc3ncc4cc(F)ccc4n3)C2)cc1 | 4.00 to 4.52
* CCC(=O)Nc1ccc(C(=O)N2CC[C@@H](Nc3ncc4ccc(OC)cc4n3)C2)cc1 | 6.00 to 7.00

// next item, pIC50 requested
Task: Reported pIC50, compound C=CC(=O)Nc1ccc(C(=O)N2CCC[C@@H](Nc3ncc4ccc(C)cc4n3)C2)cc1 : ____
Output: 4.00 to 4.52
